test system: C-33 A; test: Cell proliferation assay (ATPlite), drug with vs without cobicistat; assay type: cell-based; conditions: C-33 A cell line; 120 hours incubation
Would you kindly list Fold change in IC50 (IC50 [Drug + Cobicistat]/IC50 [Drug]) for each of these compounds?
The reply should contain only the number, in fold.

For the compound shown here, COc1cccc2c1C(=O)c1c(O)c3c(c(O)c1C2=O)C[C@@](O)(C(=O)CO)C[C@@H]3O[C@H]1C[C@H](N)[C@H](O)[C@H](C)O1 [doxorubicin] , give the reported Fold change in IC50 (IC50 [Drug + Cobicistat]/IC50 [Drug]).
1.9

One more compound: CC(=O)O[C@H]1C(=O)[C@@]2(C)[C@H]([C@H](OC(=O)c3ccccc3)[C@]3(O)C[C@H](OC(=O)[C@H](O)[C@@H](NC(=O)c4ccccc4)c4ccccc4)C(C)=C1C3(C)C)[C@]1(OC(C)=O)CO[C@@H]1C[C@@H]2O [paclitaxel]
1.3

One more compound: CC(=O)O[C@@]12CO[C@@H]1C[C@H](O)[C@@]1(C)C(=O)[C@H](O)C3=C(C)[C@@H](OC(=O)[C@H](O)[C@@H](NC(=O)OC(C)(C)C)c4ccccc4)C[C@@](O)([C@@H](OC(=O)c4ccccc4)[C@H]21)C3(C)C [docetaxel]
1.5

One more compound: CC[C@]1(O)C[C@@H]2CN(CCc3c([nH]c4ccccc34)[C@@](C(=O)OC)(c3cc4c(cc3OC)N(C)[C@H]3[C@@](O)(C(=O)OC)[C@H](OC(C)=O)[C@]5(CC)C=CCN6CC[C@]43[C@@H]65)C2)C1 [vinblastine]
1.9

One more compound: Cc1nc(Nc2ncc(C(=O)Nc3c(C)cccc3Cl)s2)cc(N2CCN(CCO)CC2)n1 [dasatinib]
1.2

One more compound: CC[C@]1(O)C[C@H]2CN(CCc3c([nH]c4ccccc34)[C@@](C(=O)OC)(c3cc4c(cc3OC)N(C=O)[C@H]3[C@@](O)(C(=O)OC)[C@H](OC(C)=O)[C@]5(CC)C=CCN6CC[C@]43[C@@H]65)C2)C1 [vincristine]
2.7

----------
test system: DoTc2 4510; assay: Cell proliferation assay (ATPlite), drug with vs without cobicistat; assay type: cell-based; settings: DoTc2 4510 cell line; 120 hours incubation
Would you kindly list Fold change in IC50 (IC50 [Drug + Cobicistat]/IC50 [Drug]) for each of these compounds?
The reply should contain only the number, in fold.

For the compound shown here, CC(=O)O[C@@]12CO[C@@H]1C[C@H](O)[C@@]1(C)C(=O)[C@H](O)C3=C(C)[C@@H](OC(=O)[C@H](O)[C@@H](NC(=O)OC(C)(C)C)c4ccccc4)C[C@@](O)([C@@H](OC(=O)c4ccccc4)[C@H]21)C3(C)C , give the reported Fold change in IC50 (IC50 [Drug + Cobicistat]/IC50 [Drug]).
5.3

One more compound: CC[C@]1(O)C[C@@H]2CN(CCc3c([nH]c4ccccc34)[C@@](C(=O)OC)(c3cc4c(cc3OC)N(C)[C@H]3[C@@](O)(C(=O)OC)[C@H](OC(C)=O)[C@]5(CC)C=CCN6CC[C@]43[C@@H]65)C2)C1
5.0

One more compound: CC(=O)O[C@H]1C(=O)[C@@]2(C)[C@H]([C@H](OC(=O)c3ccccc3)[C@]3(O)C[C@H](OC(=O)[C@H](O)[C@@H](NC(=O)c4ccccc4)c4ccccc4)C(C)=C1C3(C)C)[C@]1(OC(C)=O)CO[C@@H]1C[C@@H]2O
3.4

One more compound: COc1cccc2c1C(=O)c1c(O)c3c(c(O)c1C2=O)C[C@@](O)(C(=O)CO)C[C@@H]3O[C@H]1C[C@H](N)[C@H](O)[C@H](C)O1
1.7

One more compound: Cc1nc(Nc2ncc(C(=O)Nc3c(C)cccc3Cl)s2)cc(N2CCN(CCO)CC2)n1
3.0

One more compound: CC[C@]1(O)C[C@H]2CN(CCc3c([nH]c4ccccc34)[C@@](C(=O)OC)(c3cc4c(cc3OC)N(C=O)[C@H]3[C@@](O)(C(=O)OC)[C@H](OC(C)=O)[C@]5(CC)C=CCN6CC[C@]43[C@@H]65)C2)C1
6.2
